# TEST TARGET: NLRP3 (Homo sapiens, UniProt Q96P20)
# Sequence (Q96P20 whole entry): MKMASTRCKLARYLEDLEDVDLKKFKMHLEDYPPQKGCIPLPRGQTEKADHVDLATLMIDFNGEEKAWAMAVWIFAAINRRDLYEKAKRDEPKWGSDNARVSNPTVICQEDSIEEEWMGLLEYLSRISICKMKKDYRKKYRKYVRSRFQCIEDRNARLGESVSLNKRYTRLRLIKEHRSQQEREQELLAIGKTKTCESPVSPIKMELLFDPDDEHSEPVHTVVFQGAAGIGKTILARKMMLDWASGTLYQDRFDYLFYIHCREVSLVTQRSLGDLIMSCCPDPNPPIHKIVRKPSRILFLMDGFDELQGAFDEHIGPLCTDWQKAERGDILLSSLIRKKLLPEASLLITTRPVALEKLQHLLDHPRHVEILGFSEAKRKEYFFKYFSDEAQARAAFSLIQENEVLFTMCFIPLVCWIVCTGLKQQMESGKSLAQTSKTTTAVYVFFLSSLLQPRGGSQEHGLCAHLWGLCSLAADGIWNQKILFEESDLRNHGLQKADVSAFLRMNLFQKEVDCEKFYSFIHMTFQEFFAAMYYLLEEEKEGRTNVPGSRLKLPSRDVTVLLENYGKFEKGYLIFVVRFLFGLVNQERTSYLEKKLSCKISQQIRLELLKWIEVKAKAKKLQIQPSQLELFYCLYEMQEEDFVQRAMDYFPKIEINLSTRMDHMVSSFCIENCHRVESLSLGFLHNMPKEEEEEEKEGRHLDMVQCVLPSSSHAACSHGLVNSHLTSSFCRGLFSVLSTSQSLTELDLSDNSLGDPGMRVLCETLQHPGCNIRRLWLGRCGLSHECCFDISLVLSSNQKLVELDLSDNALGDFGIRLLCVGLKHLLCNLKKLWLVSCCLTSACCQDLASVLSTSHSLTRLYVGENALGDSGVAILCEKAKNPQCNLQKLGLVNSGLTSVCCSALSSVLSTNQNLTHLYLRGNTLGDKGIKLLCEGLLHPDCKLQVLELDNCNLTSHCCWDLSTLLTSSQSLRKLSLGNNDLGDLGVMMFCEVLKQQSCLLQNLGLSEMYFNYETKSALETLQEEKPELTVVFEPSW
# ASSAY COMMENT: Human whole blood IL-1β release assay
# Type: cell-based
# Set-up: Human whole blood in Li-heparin tubes was obtained from healthy donors from a volunteer donor panel; from tissue; host or cells: human whole blood from healthy donors
# STUDY CONDITIONS: LPS 1 μg/ml, nigericin 10 μM, IL-1β AlphaLisa, read-out: HWB IC50
pIC50: −log10 of the molar value. Counter-ions that a name gives are not always drawn.
ASSAY READOUT: pIC50

Example results:
[
  {
    "COMPOUND": "COc1cc(-c2c(C)cc3c(c2NC(=O)NS(C)(=O)=O)CCC3)ccn1 [Example 40, sodium salt]",
    "pIC50": "6.30 to 6.60"
  },
  {
    "COMPOUND": "Cc1cc2c(c(NC(=O)NS(C)(=O)=O)c1-c1ccnc(OC3CCOCC3)c1)CCC2 [Example 22]",
    "pIC50": "≥ 6.60"
  },
  {
    "COMPOUND": "Cc1cc2c(c(NC(=O)NS(=O)(=O)C(C)(C)C)c1-c1ccnc(OC3CCN(C)CC3)c1)CCC2 [Example 18]",
    "pIC50": "5.30 to 5.70"
  }
]

*Q* I am curious: what pIC50 value has been reported for Cc1cc2c(c(NC(=O)NS(C)(=O)=O)c1-c1ccncc1)CCC2 [Example 2] ?
*A* 6.30 to 6.60

*Q* Given the entry COc1cc(-c2c(C)cc3c(c2NC(=O)NS(=O)(=O)N(C)C)CCC3)ccn1 [Example 13] , report its measured pIC50.
*A* 6.00 to 6.30

*Q* Please give the measured pIC50 for this compound: COc1cc(-c2c(C)cc3c(c2NC(=O)NS(=O)(=O)C2CC2)CCC3)ccn1 [Example 12]
*A* 6.00 to 6.30

*Q* Which pIC50 is listed for Cc1cc2c(c(NC(=O)NS(C)(=O)=O)c1-c1ccnc(OC(F)F)c1)CCC2 [Example 3] ?
*A* 6.00 to 6.30

*Q* Fill in: pIC50 of COc1cc(-c2c(NC(=O)NS(C)(=O)=O)c(C(C)C)cc(F)c2C2CC2)ccn1 [Example 31] is ___
*A* 5.70 to 6.00

*Q* Which pIC50 value is on record for Cc1cc2c(c(NC(=O)NS(=O)(=O)N(C)C)c1-c1ccnc(OC3CCN(C)CC3)c1)CCC2 [Example 26] ?
*A* ≥ 6.60

*Q* Which pIC50 is reported for this compound? Cc1nc(C(C)C)c(NC(=O)NS(=O)(=O)c2cc(C(C)(C)O)co2)n1-c1ccncc1 [Example 46, ammonium salt]
*A* ≥ 6.60

*Q* Query: pIC50; subject: CCS(=O)(=O)NC(=O)Nc1c2c(cc(C)c1-c1ccnc(OC)c1)CCC2 [Example 42]
*A* 6.30 to 6.60

*Q* For Cc1cc2c(c(NC(=O)NS(C)(=O)=O)c1-c1ccnc(OC3CCN(C)CC3)c1C)CCC2 [Example 20] , what is its reported pIC50?
*A* 6.30 to 6.60

*Q* Consider the compound shown here: COc1cc(-c2c(C)cc3c(c2NC(=O)NS(=O)(=O)c2ccn(C4CC4)n2)CCC3)ccn1 [Example 35] What is its recorded pIC50?
*A* 6.00 to 6.30

The reported measurements were obtained from patent US20220106288A1.
